Values compiled from patent US10669284B2.

# system-name: Full-length human MNK2 (Homo sapiens, UniProt Q9HBH9, T379D)
# Construct: GST (N); purchased Carna Biosciences 02-146; host or cells: baculovirus expression system
# Sequence (Q9HBH9 whole entry T379D): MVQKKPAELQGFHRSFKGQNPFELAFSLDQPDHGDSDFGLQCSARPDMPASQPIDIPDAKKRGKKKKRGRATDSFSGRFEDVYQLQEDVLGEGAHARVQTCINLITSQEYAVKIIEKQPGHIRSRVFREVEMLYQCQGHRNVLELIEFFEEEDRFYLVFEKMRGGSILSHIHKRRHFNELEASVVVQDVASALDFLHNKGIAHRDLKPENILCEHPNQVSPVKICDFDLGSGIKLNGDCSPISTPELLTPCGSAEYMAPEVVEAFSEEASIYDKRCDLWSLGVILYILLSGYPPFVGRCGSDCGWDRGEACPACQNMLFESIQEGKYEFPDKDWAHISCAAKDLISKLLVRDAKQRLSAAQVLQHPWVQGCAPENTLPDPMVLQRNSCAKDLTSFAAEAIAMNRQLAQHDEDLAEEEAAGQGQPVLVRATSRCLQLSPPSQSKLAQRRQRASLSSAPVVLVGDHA
# assay-procedure: MNK2 biochemical IC50 assay (Caliper Mobility Shift Assay)
# measurement-context: read-out: P(IC50) MNK2 (converted)
endpoint-name: IC50 (nM)

Check out these entries, answers already filled in.
>  <compound>
CN1CCN(C(=O)c2nc3c(N4CCc5cc(F)ccc54)ncnc3s2)CC1

>  <obs-value>
79.4

$$$$
>  <compound>
Cc1ccc2c(c1)CCN2c1ncnc2sc(C(=O)NCC3CCNCC3)nc12

>  <obs-value>
25.1

$$$$
>  <compound>
CN1CCC2(CC1)CN(c1ncnc3sc(C(=O)NC4CCOCC4)nc13)c1ccccc12

>  <obs-value>
20

$$$$

(a) CO[C@@H]1CCC[C@H](Oc2cc(F)ccc2Nc2ncnc3sc(C(=O)NCC4CCNCC4)nc23)C1
(b) CC(C)(O)c1nc2c(N3CCc4cc(F)ccc43)ncnc2s1
(c) O=C(NCC1CCNCC1)c1nc2c(N3CCOc4cc(F)ccc43)ncnc2s1
(d) O=C(NC1CCOCC1)c1nc2c(N3CC(CCN4CCOCC4)c4ccccc43)ncnc2s1 (centres unmarked)
(e) CC(C)(O)CC1CN(c2ncnc3sc(C(=O)NCC4CCNCC4)nc23)c2ccccc21 (centres unmarked)
Query: Rank items: key IC50, increasing. In plain terms: list the labels in the order you were asked to.
Response: e, b, d, a, c
